# solubility per record follows
- assay.explanation: Solubility in PBS with 1% DMSO
- Format: physicochemical
- assay.setup: aqueous buffer, kinetic from dmso stock, read-out: Solubility Rep1
Write the value in µM as a bare number.

Past entries and their recorded results:
molecule	measurement.units	solubility
CCn1cc(NC(=S)Nc2cc(Cl)ccc2OC)c(C(N)=O)n1 [BRD-K94248251]	µM	23
CC(=O)Nc1ccc(Cc2ccc(NC(C)=O)cc2)cc1 [BRD-K44777625-001-01-9]	µM	45
CCCCOc1cc(CC2CNC(=O)N2)ccc1OC (stereo not shown) [BRD-A07207424-001-04-1]	µM	112

q: Identify measured solubility corresponding to C[C@H](CO)N1C[C@H](C)[C@H](CN(C)C(=O)Nc2ccc(F)cc2)Oc2ncc(-c3cc4ccccc4o3)cc2C1=O [Compound 106]
a: 23

q: Identify measured solubility corresponding to Cc1ccc(Cl)cc1N(CC(=O)N(S)c1c(F)cccc1F)S(C)(=O)=O [BRD-K61250484-001-01-5]
a: 23

q: Identify measured solubility corresponding to C[C@H](CO)N1C[C@H](C)[C@H](CN(C)C(=O)Nc2ccc(F)cc2)Oc2ncc(C#Cc3ccc(F)cc3)cc2C1=O [Compound 107]
a: 33

* * *

# Plasma stability Average per record follows
- assay.explanation: Plasma stability - Human; note: time not given here
- Assay type: in vitro ADME
Write the value in % remaining as a bare number.

Past entries and their recorded results:
compound	value.kind	recorded.value
CCn1cc(NC(=S)Nc2cc(Cl)ccc2OC)c(C(N)=O)n1 [BRD-K94248251]	Plasma stability Average	63.9
CC(=O)Nc1ccc(Cc2ccc(NC(C)=O)cc2)cc1 [BRD-K44777625-001-01-9]	Plasma stability Average	100.6
CCCCOc1cc(CC2CNC(=O)N2)ccc1OC (stereo not shown) [BRD-A07207424-001-04-1]	Plasma stability Average	105.9
Cc1ccc(Cl)cc1N(CC(=O)N(S)c1c(F)cccc1F)S(C)(=O)=O [BRD-K61250484-001-01-5]	Plasma stability Average	101.4
C[C@H]1CN([C@@H](C)CO)C(=O)CCCn2cc(nn2)CO[C@H]1CN(C)C(=O)C1CC1 [Compound 108]	Plasma stability Average	104.2
C[C@H](CO)N1C[C@H](C)[C@H](CN(C)C(=O)Nc2ccc(F)cc2)Oc2ncc(-c3cc4ccccc4o3)cc2C1=O [Compound 106]	Plasma stability Average	98.0

q: Identify measured Plasma stability Average corresponding to C[C@H](CO)N1C[C@H](C)[C@H](CN(C)C(=O)Nc2ccc(F)cc2)Oc2ncc(C#Cc3ccc(F)cc3)cc2C1=O [Compound 107]
a: 87.1

* * *

- assay.explanation: Protein binding - Human
- Type: in vitro ADME
# Protein binding Rep1 per record follows
Write the value in % bound as a bare number.

Past entries and their recorded results:
molecule	measurement.units	Protein binding Rep1
Cc1ccc(Cl)cc1N(CC(=O)N(S)c1c(F)cccc1F)S(C)(=O)=O	% bound	90.9
CC(=O)Nc1ccc(Cc2ccc(NC(C)=O)cc2)cc1	% bound	91.0
CCn1cc(NC(=S)Nc2cc(Cl)ccc2OC)c(C(N)=O)n1	% bound	95.7
C[C@H](CO)N1C[C@H](C)[C@H](CN(C)C(=O)Nc2ccc(F)cc2)Oc2ncc(-c3cc4ccccc4o3)cc2C1=O	% bound	99.3
CCCCOc1cc(CC2CNC(=O)N2)ccc1OC (stereo not shown)	% bound	76.2
C[C@H]1CN([C@@H](C)CO)C(=O)CCCn2cc(nn2)CO[C@H]1CN(C)C(=O)C1CC1	% bound	11.8

Field: next molecule
q: Identify measured Protein binding Rep1 corresponding to "C[C@H](CO)N1C[C@H](C)[C@H](CN(C)C(=O)Nc2ccc(F)cc2)Oc2ncc(C#Cc3ccc(F)cc3)cc2C1=O"
a: 99.4
